Where do the numbers come from? From ChEMBL document CHEMBL5131394.

target: Serine/threonine-protein kinase PLK1 (Homo sapiens, UniProt P53350); experiment: Binding affinity to recombinant human N-terminal GST-tagged PLK1-PBD (367 to 603 end residue) expressed in Escherichia coli using MAGPMQS[pT]PLNGAKK as substrate incubated for 45 mins by fluorescence polarization assay
Sequence (P53350 whole entry): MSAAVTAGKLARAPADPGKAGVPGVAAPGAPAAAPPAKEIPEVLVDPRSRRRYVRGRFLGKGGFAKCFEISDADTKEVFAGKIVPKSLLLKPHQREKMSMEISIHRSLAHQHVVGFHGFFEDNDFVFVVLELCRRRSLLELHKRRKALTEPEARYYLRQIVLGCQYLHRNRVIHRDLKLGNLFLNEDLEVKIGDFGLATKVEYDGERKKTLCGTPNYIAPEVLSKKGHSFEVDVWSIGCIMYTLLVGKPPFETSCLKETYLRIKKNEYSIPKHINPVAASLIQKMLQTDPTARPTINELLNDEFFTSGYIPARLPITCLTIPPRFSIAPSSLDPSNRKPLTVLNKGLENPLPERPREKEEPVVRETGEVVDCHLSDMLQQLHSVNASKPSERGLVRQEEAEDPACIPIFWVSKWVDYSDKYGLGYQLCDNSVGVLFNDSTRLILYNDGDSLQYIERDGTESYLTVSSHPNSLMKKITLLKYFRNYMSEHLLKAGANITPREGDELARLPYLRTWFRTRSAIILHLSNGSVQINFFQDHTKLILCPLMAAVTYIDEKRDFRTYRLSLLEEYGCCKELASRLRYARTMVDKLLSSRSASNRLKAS
pIC50: −log10 of the molar value.
Let's look at some compounds and their measured pIC50.

| MOLECULAR_STRING | TESTED_TARGET | pIC50 |
| --- | --- | --- |
| CCCCCCCCc1ccc(CNc2cccc(OP(=O)(O)O)c2)cc1 | Serine/threonine-protein kinase PLK1 (Homo sapiens, UniProt P53350) | < 3.22 |
| CCCCCCCCc1ccc(CNc2cccc(CC)c2)cc1 | Serine/threonine-protein kinase PLK1 (Homo sapiens, UniProt P53350) | < 3.22 |
| CCCCCCCCc1ccc(C(=O)Nc2ccccc2[N+](=O)[O-])cc1 | Serine/threonine-protein kinase PLK1 (Homo sapiens, UniProt P53350) | < 3.22 |
